Tested on: 817829-284-R-J1-PDC complex spheroid viability;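 note: spheroids exposed to compounds for 7 days; 100% = DMSO vehicle-treated spheroids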
Assay: Anticancer human tumor 817829-284-R-J1-PDC patient-derived colon adenocarcinoma cell line growth inhibition [POLQ]
Stated conditions: second compound 0.0316 µM; first compound 0.1 µM; active compounds read low
hey, just use 1 if measured viability, T/C is less than 70%, otherwise -1

[ask] I'd appreciate it if you could check whether O=c1[nH]cc(F)c(=O)[nH]1 + Cc1cccc(N(C)C(=O)C2C(O)CCN2c2nc(C)cc(C(F)(F)F)c2C#N)c1 has viability, T/C smaller than 70%.
[reply] -1

[ask] Please give the result for CCc1cc2c(N3CCc4c(cc(Cn5ccnc5)cc4-c4cn(C)nc4C(F)(F)F)C3=O)cc(C)nc2c(OC)n1 + Nc1ccc(C#CCN(C(=O)Cc2ncc(C(F)(F)F)cc2C(F)(F)F)c2ccc(F)cc2)nn1 too.
[reply] -1

[ask] Please give the result for Nc1ccn(C2OC(CO)C(O)C2(F)F)c(=O)n1 (stereo unspecified) + COC1C(OC(N)=O)C(O)C(Oc2ccc3c(O)c(NC(=O)c4ccc(O)c(CC=C(C)C)c4)c(=O)oc3c2C)OC1(C)C too.
[reply] 1

[ask] Please give the result for CC[C@@]1(O)C(=O)OCc2c1cc1n(c2=O)Cc2cc3c(CN(C)C)c(O)ccc3nc2-1 + Cc1cccc(N(C)C(=O)C2C(O)CCN2c2nc(C)cc(C(F)(F)F)c2C#N)c1 too.
[reply] 1

[ask] Please give the result for CC1COCCN1c1cc(-c2ccnn2C)c2ccnc(-c3ccn[nH]3)c2n1 (stereo unspecified) + Cc1cccc(N(C)C(=O)C2C(O)CCN2c2nc(C)cc(C(F)(F)F)c2C#N)c1 too.
[reply] 1

[ask] Please give the result for CC1COCCN1c1cc(C2(O)CC3CCC(C2)O3)c2cnn(-c3ccn[nH]3)c2n1 (stereo unspecified) + COC1C(OC(N)=O)C(O)C(Oc2ccc3c(O)c(NC(=O)c4ccc(O)c(CC=C(C)C)c4)c(=O)oc3c2C)OC1(C)C too.
[reply] 1

[ask] Please give the result for COc1ccc([C@@H](O)c2cc(-c3ncnc4cc(N5CCOCC5)ccc34)c(F)cc2Cl)nn1 + Nc1ccc(C#CCN(C(=O)Cc2ncc(C(F)(F)F)cc2C(F)(F)F)c2ccc(F)cc2)nn1 too.
[reply] -1

[ask] Please give the result for C=CC(=O)N1CCN(c2nc(=O)n(-c3c(C)ccnc3C(C)C)c3nc(-c4c(O)cccc4F)c(F)cc23)C(C)C1 (stereo unspecified) + Nc1ccc(C#CCN(C(=O)Cc2ncc(C(F)(F)F)cc2C(F)(F)F)c2ccc(F)cc2)nn1 too.
[reply] -1

[ask] Please give the result for CC1COCCN1c1cc(C2(O)CC3CCC(C2)O3)c2cnn(-c3ccn[nH]3)c2n1 (stereo unspecified) + Nc1ccc(C#CCN(C(=O)Cc2ncc(C(F)(F)F)cc2C(F)(F)F)c2ccc(F)cc2)nn1 too.
[reply] 1

[ask] Please give the result for C=CC(=O)N1CCN(c2nc(=O)n(-c3c(C)ccnc3C(C)C)c3nc(-c4c(O)cccc4F)c(F)cc23)C(C)C1 (stereo unspecified) + Cc1cccc(N(C)C(=O)C2C(O)CCN2c2nc(C)cc(C(F)(F)F)c2C#N)c1 too.
[reply] -1
